# experimental.protocol: yeast display, Sf9 membrane polyspecificity reagent, FACS + sequencing; frameworks hold sequencing errors

{"columns": ["sequence.content", "polyreactivity (PSR sort gate)"],
 "data": [
  ["QVQLVESGGGLVQAGGSLRLSCAASGRTFDYNAMGWYRQAPGKEREFVAAITKSGGSTNYADSVKGRFTISRDNEKNTVYLQMNSLKPEDTAVYYCNATYVVIHEYDYWGQGTQVTVSS", "low polyreactivity"],
  ["QVQLVESGGVLVQAGGSLRVSCAASGGIFPRYTMGWSRQAPGKERELVASITRSGASTYYADSVKGRFTISRDKAKNTVYLPINSQKPEDTWFYYVISDVYVYSVTSHYTSSRLDYWGQGTQVTVSS", "high polyreactivity"],
  ["QVQHVESAGGLVQAGGSLRLICAASGSIFFHYGMGWYRQAPGKERELVADIRSGGSTYYADSVKGRFTSSRDNAKNTVYLQMNSLKPDDSAVYYCAAVLALFGVTHVDYWGQGTQVSVSS", "low polyreactivity"],
  ["QVQLVESGGGLVQAGGSLRLSCAACGSTFLYYAMGWYRQAPGKERELVAGISWDGTSTYYADSVKGRFTISRDNAKNSVYLQMNSLKPEDTAVYYCAAFGWSRVYHWRFEWGQGTQVTVSS", "low polyreactivity"],
  ["QVQLVESGGGLVQAGGSLRLSCAASGSTFYWYTMGWYRQAPGKERELVATINYSGGSTYYADSVKGRFTISRDNAKNTVYLQMNSLKPEDTAVYYCNKQVYVGWGSDYWGQGTQVTVSS", "low polyreactivity"],
  ["QVQLVESGGGLVQAGGSLRLSCAASGSIFDPNAMGWYRQAPGKERELVAAITSGGGSTYYADSVKGRFTISRDNAKNTVYLQMNSLNPEDTAVYYCNKVFVLPYKFVAWFDYWGQGTQVTVSS", "low polyreactivity"],
  ["QVQLVESGGGLVQAGGSLRLSCAASGRTFLVYAMGWYRQAPGKERELVADITSGGSTDYADSVKGRFTISRDNAKNTVYLQMNSLKPEDTAVYYCATDLWRWYGWFDYWGQGTQVTVSS", "low polyreactivity"],
  ["QVQLVESGGGLVQAGGSLRLSCAASGSTFYENAMGWYRQAPGKERELVAAITWSGGRTYYADSVKGRFTISRDNAKNTVYLQMNSLKPEDTAVYYCNARARSRKFYYWGQGTQVTVSS", "high polyreactivity"],
  ["QVQLVESGGGLVQEGGSLLISCAASGSIVESYAMGWYRQAPGKEREWVAAITIRGASPYYADSVKGRFTISRDNAKNTVYLQMNSLKPEDTAVYYCNARWPGIGPIYDYWGQGTQVTVSS", "low polyreactivity"],
  ["QVQLVESGGGLVQAGGSLRLSCAASGYTFQKYAMGWYRQAPGKERELVAAITRSGTRTYYADSVKGRFTISRDNAKNTVYFQMNSLKPEDTAVYYCAAETYYSIYDYWGQGTQVTVSS", "high polyreactivity"],
  ["QVQLVESGGGLVQAGGSLRLSCAASGRIFGSYAMGWYRQAPGKERELVAAISGSGSRTYYADSVKGRFTISRDNAKNTVYLQMNSLKPEDTAVYYCNKYRFRVYPFGYWGQGTQVTVSS", "high polyreactivity"],
  ["QVQLVESGGGLVQAGGSLRLSCAASGRTFDVYAMGWYRQAPGKEMELVAAITRRGGSTYYADSVKGRFTISRDNAKNTVNLQMNRLKPEDTAVYYCSAAYSRGSGVGRYRLDYWGKGTQVTVSS", "high polyreactivity"],
  ["QVQLVESGGGLVQAGGSLRLSCAASGSTFYWYAMGWYRQAPGKERELVDDITFSSGGTYYADSVKGRFTISRDNAKNTVYLQMNSLKPEVTADYYCATEYSLWYTRDWQRYEYWGQGTQVTVSS", "high polyreactivity"],
  ["QVQLVESGGGLVQAGGSLRLSCAASGRTFFWNAMGWYRQAPGKERELVATISRSGGSTYYADSVKGRFTISRDNAKNTVYLQMNSLKPEDTAVYYCAAQYVRRSRKYDYWGQGTQVTVSS", "high polyreactivity"],
  ["QVQLVESGGCLVKAGGSLRLSCAASGRIFLTNAIGWYRQAPGKESELVADISRAGSTYADSVKGRFTISRDNAKNTVYLQMNSLKPEDTAVYYCSADEYSPGDSRTRYDYWGQGTQVTVSS", "low polyreactivity"],
  ["QVQLVESGGGLVQAGGSLRLSCAASGSTFYRNAMGWYRQAPGKERELVAAISRDGSTYYADSVKGRFTISRDNAKNTVYLQMNSLKPEDTAVYSCAKAGVTNGVVVDSVYAYDYWGQGTQVTVSS", "low polyreactivity"],
  ["QVQLVESGGGLVQAGGSLRLSCAASGSTFWVYGMGWSRQAPGKERELVADITSIGGSTYYADSVKGRFTISRDNAKNTVYLQMNSLKPEDTAVYYCAARETWYPYYWMGYWGQGTQVTVSS", "high polyreactivity"],
  ["QVQLVESGGGLVQAGGSLRLSCAASGFTFKGNAMGWYRQAPGKESELVAGISRSGRTYYADSVKGRFTISRDNAKNSVYLQMNSLKPEDTAVYYCNARNQGWASLPTMGYWGQGTQVTVSS", "high polyreactivity"],
  ["QVQIVESGGGLVQAGCSLRISCAASGRTFYRYAMGWYRQAPGKEREFVAAISWRGGSTRYADSVKGRFTISRDNAKNTVYLQLNSLKPEVTAVYYCNADPQRSVSYTDQYRPVWYGYWGQGTQVTVSS", "high polyreactivity"],
  ["QVQLVESGGGLFQAGGSLRLSCAASGRIFGLYAMGWYRQAPGKERELVAAISRGGGSTYYADSVKGRFTISRDNAKNTVYLQMNSLKAEDTAFDFCATGLGYFCRLDYWGQGTQLTVSS", "low polyreactivity"],
  ["QVQLEESGGGLVQAGGSLRLSCAASGSIFSIYAMGWYRQAPGKERELVASITRSSGRTYYADSVKGRFTISRDNAKNTVYLQMNSLKPEDTAVYYCAKDYIPLALDADDYWGQGTQVTVSS", "low polyreactivity"]
]}

====

# experimental.protocol: yeast display, Sf9 membrane polyspecificity reagent, FACS + sequencing; frameworks hold sequencing errors

{"columns": ["sequence.content", "polyreactivity (PSR sort gate)"],
 "data": [
  ["QVQLVESGGGLVQAGGSLRLICAASGSIFVGNAMCWYSQATGKERELVATITSGGSTYYADSVKGRFTISRDNAMNTVYLQMNSLKPEDTSVYNCAADYEFSKFDYVYWGQGTQVTVSS", "low polyreactivity"],
  ["QVQLVESGGGLVQAGGSLRLSCAASGFTFSINAMGWYRKAPGKERELVAGISWSGGITYYADSVKGRFTISRDNAKNTVYLQMNSLKPEDTAVYYCNTDYGLTTPVVWDDYWGQGTQVTVSS", "low polyreactivity"]
]}

====

# experimental.protocol: yeast display, Sf9 membrane polyspecificity reagent, FACS + sequencing; frameworks hold sequencing errors

{"columns": ["sequence.content", "polyreactivity (PSR sort gate)"],
 "data": [
  ["QVQLVESGGGLVQAGGSLRLSCAASGSTFYYYAMGWYRQAPGKERELVAAISGGGNTKYADSVKGRFTISRDNAKNTVYLQMNSLKPEDTAVYYCAARLAYWYYYAWRGPYYYWGQGPQVTVSS", "high polyreactivity"],
  ["QVQLVESGGGLVQAGGSLRLSCAASGRIFASYAMGWYRQAPGKERELVAAISLRGGSTYYADSVKGRFTISRDNAKNTVYLQMNSLKPEDTAVYYCAAYHPHGFDYYRYYYWGQGTQVTVSS", "high polyreactivity"],
  ["QFQLVESGGGLVQAGGSLRLSCAASGFIFQRYAMGWYRQAPGKERELVAAINFSGGSTYYADSVKGRFTISRDNAKNTVYLQMNSLKPEDTAVYYCNTGNITQTKSIFDYWGQGSQVTVSS", "high polyreactivity"]
]}

====

# experimental.protocol: yeast display, Sf9 membrane polyspecificity reagent, FACS + sequencing; frameworks hold sequencing errors

{"columns": ["sequence.content", "polyreactivity (PSR sort gate)"],
 "data": [
  ["QVQLVESGGGLVQAGGSLRLSCAASGRTFRIYAMGWYRQAPGKERELVAAINSGGTTNYADSVKGRFTISRDNAKNTVYLQMISLKPEDTAVYYCAVRYWKTLSHFSYDYWGQGTQVTVSS", "low polyreactivity"],
  ["QVQIVESGGGLVQAGGSLRLSCAASGRIFIRYSMGWYRHAPGIERELVAAISSGGRTYYADSVKGRFTISRDNATNTVYLQMNSLNPEDTAVYYCARASSIARYDNWGQGTQVTVSS", "high polyreactivity"],
  ["QVQLVESGGGLVQAGGSLRLSCAASGGIIRVYVMGWSRQAPGKERELVAAISRRGGSTYYADSVKGRFTISRDNAKNTVYLQMNSLKPEDTAVYYCAAAVRPRANTTYQRPRYYYWGQGTQVTVSS", "high polyreactivity"],
  ["QVQLVESGGGLVQAGVSLRLSCAASGRTFIGNAMGWYRQAPGKEREFVAAISRRGGSTYYADSVKGRFTISRDNAKNTVYLQMNSLKPEDTAVYYCAAGQTTTGILTYYYWGQGTQVTVSS", "high polyreactivity"],
  ["QVQLVESGGGLVQAGGSLRLSCAASGNTFGGYAMGWYRQAPGKERELVATISYADSVKGRFTISRDNAKNTVYLQMNSLKPEDTAVYYCNKQFGYPWEYYSYSYDYWGQGTQVTVSS", "low polyreactivity"],
  ["QVQLVESGGGLVQAGGSLRISCAASGRIFRQNTMGWYRQAPGKERELVAAISRSGGSTYYADSVKGRFTISRENAKNTVYLQMNSLKPEDTAVYYCNKVTYIVAIWGSDIYVPSEFGYWGQGTQVTVSS", "high polyreactivity"],
  ["QVQLVESGGGLVQAGGSLRLSCAASGLIFIYNTMGWSRQAPGKERELVAAISGRGGSTYYADSVKGRFTISRDNAKNTVYLQMNSLKPEDTAVYYCAAQDTYHSYGLYSWGQGTQVTVSS", "low polyreactivity"],
  ["QLQLVESGGGLVQAGGSLRLSCAASGSIFTWYAMGWYRQAPGKERELVAAITRGGSTYADSVKGRFTISRDNAKNTVNLQMNSLKPEDTAVYYCNAVYGVYDFNYWGQGTQVTGSS", "low polyreactivity"],
  ["QVQLVESGGGLVQAGGSLRLSCAPSGFTFTYYAMGWYRQAPGQERELVAAITQSGGSTFYADSVQGRFTISRDNAKNTVYLQMNSLKPEDTAVYYCAADIDLYYDYDYWGQGTQVTVSS", "low polyreactivity"],
  ["QVQLVESAGGLVQAGGSLSLSCAASGSTFYKYTMGWDRQAPGKERELVAAISGSGTTTYYADSVKGRFTISRDNAKNTVYLQMNSLKPEDTAVYYCAAHSRSSSGYHWGQGTQVTVSS", "high polyreactivity"],
  ["QVQLVESGGGLVQAGGSLRLSCAASGSIFEYNAMGWYRQAPGKERELVAAISGNGGRTYYADSVKGRFTISRDNAKNTVYLQMNSLKPEDTAVYYCNAQTYYSTYKSTFYYWGQGTQVTVSS", "high polyreactivity"],
  ["QVQLVESGGGLVQAGGSLRLSCAASGRIFRYYTMGWYRQAHGKEREFVATITSSGGSTNYADSVKGRFTISRDNAKNSVYIQTNSLKPEDTAVYYCAKTSRAPWDGYYWGEGTQVTVSS", "low polyreactivity"],
  ["QVQLVESGGGLVQAGGSLRLSCAASGSTFQRYAMGWSRQAPGKERELVAAIDTVGSTNYADSVKGRFTISRDNAKNTVYLQMNSLKPEDTAVYYCAVVTPYWSFYEQVIPSNYWGQGTQVTVSS", "low polyreactivity"],
  ["QVQLVESGGGLVQAGGSIRLSCAASGFIFFSNAMGWYRQAPGKERELVAVIDRATSTYYADSVKGRFTISRDNAKNTVYLQMNSLKPEDTAVYYCNADGEEVYDFNYFLSFKGDYWGQGTQVTVSS", "low polyreactivity"],
  ["EVQLVESGGGLVQAGGSLRLSCAASGSIFSFYAMGWYRQAPGKERELVAAISRSAGRTYYADSVKGRFTISRDNATNTVYLQRNSLKPEDTAVYYCNKASWYNGEMDYWGQGTQVTVSS", "high polyreactivity"],
  ["QVQLVESGGGLVQAGGSLRLSCAASGSTFDFNVMGWYRQAPGKERELVAAISSGSSTYYADSVKGRFTISRDNAKNTVYLQMNSLKPEDTAVYYCARRYQLVRTRYYYWGQGTQVTVSS", "high polyreactivity"],
  ["QVQLVESGGGLVQAGGSLRLSCAASGRIFRANTMGWYRQAPGKERELVAVITASGGSTYYADSVKGRFTISRDNAKNTVYLQMNSLKPEDTAVYYCNRVPRTRLSGHDYWGQGTQVTVSS", "high polyreactivity"],
  ["QVQLVESGGGLVQAGGSLRLSCAASGRIIRINAMGSYRPAPGKERELVAAITRGGTTYADSVKGRFTISRDNAKNTVYLQMTSLIPEDTSVYNCNARTGRSPSGFRYWGQGTQVTVSS", "high polyreactivity"],
  ["HVQLVESGGGLVQAGGSLRLSCAASGSTFAGNAMGWYRQAPGKERELVAAITFSGGRTDYADSVKGRFTISRDNAKNTVYLQMNSLKPEDTAVYYCAAPADDTVHYQNYYWGQGTQVTVSS", "low polyreactivity"],
  ["QVQLVESGGGLVQAGGSLRLSCAASGSTFYYYAMGWYRQAPGKERELVAVITFSGGSTNYADSVKGRFTISRDNAKNTVYLQMNSLKPEDTAVYYCAADTYSYRYSNDYWGQGTQVTVSS", "low polyreactivity"],
  ["QVQLVESGGGLVQAGGSLRLSCAAYGSNYSTYTMGWYRTAAGKERQLVAAITRSGGSTYYADSVKGRFTISRDNAKKTDYLQMNSLKPEDTAVFYCAARGQAYSGDRMYYWGLGTQVTVSS", "high polyreactivity"]
]}

Data origin: the nanobody polyreactivity screen of Harvey et al. (2022)
